Documented pEC50 across a set of molecules
System: murine spleen lymphocytes
protocol_notes: Cytokine stimulation of murine spleen lymphocytes, ELISA
Format: cell-based
assay_conditions: Lymphocyte; mouse immune cells (spleen lymphocytes), 24 hrs, ELISA; read-out: TNF-alpha EC50 of cytokine stimulating activity
Protocol: The stimulating effect of a series of GY compounds or drugs on murine spleen lymphocytes was detected by ELISA. 6-week-old Balb/c mice were sacrificed by cervical dislocation, spleens were taken under aseptic conditions. A 1 mL sterile syringe and a 200 mesh cell strainer were adopted to quickly grind and disperse the spleen into individual cells in 4 mL of a murine lymphocyte separation solution (Dakko's, 7211011). […] Cells were counted by a hemocytometer, to calculate the cell concentration. […]
Value format note: pEC50 is -log10 of concentration (mol/L); just state the number.

IN: Query (molecule): CCCCOc1nc(N)c2nc(O)n(Cc3cn(CCOCCOCCOCC(=O)Nc4cc(Nc5nccc(-c6cn(C)c7ccccc67)n5)c(OC)cc4N(C)CCN(C)C)nn3)c2n1 ; field requested: pEC50
OUT: 4.46

IN: Please answer likewise for CCCCOc1nc(N)c2nc(O)n(Cc3cn(CCCCCCCCCCCCP(=O)(O)O)nn3)c2n1
OUT: 5.58

IN: Another: C=C(CC(=O)NCCOCCOCCOCCn1cc(Cn2c(O)nc3c(N)nc(OCCCC)nc32)nn1)C(=O)N1CCC(C2CCNc3c(C(N)=O)c(-c4ccc(Oc5ccccc5)cc4)nn32)CC1 (single isomer, unassigned)
OUT: 5.67

Continuing:
IN: # lookup: pEC50 of CCCCOc1nc(N)c2nc(O)n(Cc3cn(CCOCCOCCOCCN)nn3)c2n1
OUT: 5.84

IN: Continue with C=C(CC(=O)NCCOCCOCCOCCn1cc(Cn2c(O)nc3c(N)nc(OCCCC)nc32)nn1)C(=O)O
OUT: 6.82
